# SYSTEM NAME: Serine/threonine-protein kinase PAK 4 (Homo sapiens)
# Sequence (O96013 whole entry): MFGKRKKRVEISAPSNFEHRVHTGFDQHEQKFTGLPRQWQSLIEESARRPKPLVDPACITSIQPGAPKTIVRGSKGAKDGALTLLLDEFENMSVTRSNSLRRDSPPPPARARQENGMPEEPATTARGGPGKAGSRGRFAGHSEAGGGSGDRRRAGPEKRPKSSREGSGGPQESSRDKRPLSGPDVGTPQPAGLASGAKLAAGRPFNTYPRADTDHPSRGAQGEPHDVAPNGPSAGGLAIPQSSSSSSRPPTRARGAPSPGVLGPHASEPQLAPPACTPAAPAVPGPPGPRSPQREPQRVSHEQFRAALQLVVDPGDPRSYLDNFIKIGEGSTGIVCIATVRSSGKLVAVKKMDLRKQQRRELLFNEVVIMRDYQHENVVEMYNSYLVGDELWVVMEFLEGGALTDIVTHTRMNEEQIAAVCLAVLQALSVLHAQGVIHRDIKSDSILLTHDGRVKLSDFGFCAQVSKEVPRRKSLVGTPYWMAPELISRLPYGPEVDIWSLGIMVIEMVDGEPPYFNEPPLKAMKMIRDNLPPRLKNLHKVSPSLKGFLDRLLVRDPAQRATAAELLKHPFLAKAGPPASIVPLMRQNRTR
pIC50: −log10 of the molar value.
QUANTITY NAME: pIC50

The compound listed as CN1CCN(C[C@@H](NC(=O)C[C@H]2CNC(=O)c3cc(-c4cccc(Cl)c4)cn32)C2CCCCC2)CC1 shows pIC50 equal to < 5.00

* * *

# ASSAY NOTES: Cytotoxicity against mouse BA/F3 cells overexpressing PIM1 after 72 hrs by CellTitre-Glo assay
# Type: functional, cell-based
# SETUP CONDITIONS: BaF3, 72 h
Measured IC50 of individual entries

Reference set (2 entries):
NC[C@@H](NC(=O)C[C@H]1CNC(=O)c2cc(-c3ccnc(F)c3)cn21)c1ccccc1: > 10 µM
NC[C@@H](NC(=O)C[C@H]1CNC(=O)c2cc(-c3cccc(F)c3)cn21)c1ccccc1: > 10 µM

The molecule listed as O=C(CC1CNC(=O)c2cc(-c3ccnc(Cl)n3)cn21)NCC1CCCCC1 (racemic) shows IC50 equal to > 5 µM
